- System: BDF1 mice, P388 leukemia ip, median survival T/C
- protocol_text: NCI In Vivo Anticancer Drug Screen. Data for tumor model P388 Leukemia (intraperitoneal) in B6D2F1 (BDF1) mice
- setup_conditions: endpoint: median survival time; dose: 25.0 mg/kg/injection; schedule: Q01DX009 (ip); vehicle: saline with Tween-80; higher = longer survival
Toxic doses and inconclusive results are not listed.
measured_property: T/C

Reported T/C ( `CN1C(=O)CC2(CCN(CCCC(=O)c3ccc(F)cc3)CC2)C1=O` ) = 124 % of control

T/C reported for this compound `Cn1c([N+](=O)[O-])cnc1CSC(=S)N1CCN(C(=S)SCc2ncc([N+](=O)[O-])n2C)CC1` : 106 % of control

Noted for `Cn1c(C(C)(C)O)cnc1[N+](=O)[O-]` : its T/C reads 105 % of control

// T/C lookup, compound = `O=c1[nH]c(Cl)nc2c(Cl)c(C(Cl)(Cl)Cl)nn12` , result: 104 % of control

Note to self: T/C recorded for CC(CC(O)C(C)(C)C)C(C)(C)C (configuration not stated) was 110 % of control

Continuing:
For this compound ( `CC1=CC(=NC(=O)CBr)C=C/C1=N\S(=O)(=O)c1ccccc1` ), measured T/C is 106 % of control

Record `CCN(CC)c1ccc2c(C)cc(=O)oc2c1` , field T/C: 94 % of control

Consider N#CCC(C#N)N1CCOCC1 (configuration not stated) . Its measured T/C is 88 % of control

Measured T/C of `N=C(N)SCCCCCCCCCCSC(=N)N` : 97 % of control

// field: T/C; key: `S=c1nc2[nH]c3ccccc3c2n[nH]1` ; value = 88 % of control

T/C measured on `CC(C)(C)c1cc(I)c(O)c(CN)c1` = 109 % of control

For reference, reported T/C for `CCCCN(C)N=Nc1c(C(N)=O)n[nH]c1C` stands at 120 % of control

* * *

- System: BDF1 mice, P388 leukemia ip, median survival T/C
- protocol_text: NCI In Vivo Anticancer Drug Screen. Data for tumor model P388 Leukemia (intraperitoneal) in B6D2F1 (BDF1) mice
- setup_conditions: endpoint: median survival time; dose: 50.0 mg/kg/injection; schedule: Q01DX001 (ip); vehicle: saline; higher = longer survival
Inconclusive results and toxic doses are left out.
Reported T/C values for a set of compounds

Summary: `CC(=O)OCc1c(C)nc2sccn12` , BDF1 mice, P388 leukemia ip, median survival T/C, T/C = 96 % of control

BDF1 mice, P388 leukemia ip, median survival T/C assay, compound `C[S+](C)N(c1ccc(Cl)cc1)C(C)(C)C` , recorded T/C = 111 % of control

// T/C (BDF1 mice, P388 leukemia ip, median survival T/C) for CC1C[N+](C)(C)NC1=O (stereo unspecified) = 100 % of control

Known value: BDF1 mice, P388 leukemia ip, median survival T/C T/C of the compound `COc1cccc(N=C(N)N=C(N)N)c1` equals 100 % of control

Further cases:
`COc1cc2c(cc1OC)C(C)=NCC2` on BDF1 mice, P388 leukemia ip, median survival T/C gives T/C = 108 % of control

Bench note, BDF1 mice, P388 leukemia ip, median survival T/C: entry `C[S+](C)C` , its T/C = 100 % of control
